biological target: BaF3 (T315I mutant) (Homo sapiens, UniProt P00519, T315I, cells depend on it); assay: WST (CCK-8) anti-proliferative assay, BaF3 T315I mutant; settings: read-out: BaF3 (T315I mutant), 72 h treatment, CCK-8 readout OD 450 nm
Sorting guide: entries reporting GI50 beneath 100 nM go in the criterion met pile, the rest go in the criterion not met pile.

Record CC(=O)N[C@@H]1CC[C@H]2c3cc(C(=O)Nc4ccc(OC(F)(F)Cl)cc4)cc(-c4ccc(C#N)nc4)c3N(C(C)C)[C@@H]12 : is its GI50 strictly below 100 nM?
criterion met

What do you get for CCC(CC)N1c2c(-c3cncc(F)c3)cc(C(=O)Nc3ccc(OC(F)(F)Cl)cc3)cc2C2CCC(NC(C)=O)C21 (stereo not drawn) ?
criterion not met

CNS(=O)(=O)NC1CCC2c3cc(C(=O)Nc4ccc(OC(F)(F)Cl)cc4)cc(-c4ccn[nH]4)c3N(C(C)C)C12 (stereo not drawn) ?
criterion not met

Now this one: CC(=O)N[C@H]1CC[C@@H]2c3cc(C(=O)Nc4ccc(OC(F)(F)Cl)cc4)cc(-c4ccn[nH]4)c3N(CC(C)(C)C)[C@H]12
criterion not met

Now try CC(C)N1c2c(-c3ccn[nH]3)cc(C(=O)Nc3ccc(OC(F)(F)Cl)cc3)cc2C2CCC(NC(=O)C3CN(C)C3)C21 (stereo not drawn) .
criterion not met

Next:
Find out if reported GI50 for CC(=O)N1CCC2c3cc(C(=O)Nc4ccc(OC(F)(F)Cl)cc4)cc(-c4ccn[nH]4)c3N(C(C)C)C2C1 (stereo not drawn) is less than 100 nM
criterion not met

Thanks! And CC(C)N1c2c(-c3ccn[nH]3)cc(C(=O)Nc3ccc(OC(F)(F)Cl)cc3)cc2C2CCC(NS(=O)(=O)N3CCN(C)CC3)C21 (stereo not drawn) ?
criterion not met

Now give it for CC(=O)N[C@@H]1CC[C@H]2c3cc(C(=O)Nc4ccc(OC(F)(F)Cl)cc4)cc(-c4ccc(C)nc4)c3N(CC(C)(C)C)[C@@H]12 too.
criterion met

Entry CC(C)N1c2c(-c3ccn[nH]3)cc(C(=O)Nc3ccc(OC(F)(F)Cl)cc3)cc2C2CCC(N3CCCC3=O)C21 (stereo not drawn) please
criterion met

Try this compound too: CC(=O)N[C@@H]1CC[C@H]2c3cc(C(=O)Nc4ccc(OC(F)(F)Cl)cc4)cc(-c4ccccn4)c3N(CC(C)(C)C)[C@@H]12
criterion not met

What do you have for CC(C)N1c2c(-c3ccn[nH]3)cc(C(=O)Nc3ccc(OC(F)(F)Cl)cc3)cc2C2CCC(N3CCCS3(=O)=O)C21 (stereo not drawn) ?
criterion not met

* * *

biological target: BaF3 (T315I mutant) (Homo sapiens, UniProt P00519, T315I, cells depend on it); test: WST (CCK-8) anti-proliferative assay, BaF3 T315I mutant; settings: read-out: BaF3 (T315I mutant), 72 h treatment, CCK-8 readout OD 450 nm
endpoint: GI50
Don't forget the unit after the number, please.

For the compound CC(=O)N[C@H]1CC[C@@H]2c3cc(C(=O)Nc4ccc(OC(F)(F)Cl)cc4)cc(-c4cncnc4)c3N(C(C)C)[C@H]12 [Compound 20-B] , what GI50 is on record?
1380 nM

And what about the compound CC(=O)NC1CCC2c3cc(C(=O)Nc4ccc(OC(F)(F)Cl)cc4)cc(-c4ccn[nH]4)c3N(C(C)C)C12 (stereo not shown) [Compound 4] ?
71 nM

Okay, and CC(=O)N[C@H]1CC[C@@H]2c3cc(C(=O)Nc4ccc(OC(F)(F)Cl)cc4)cc(-c4ccn[nH]4)c3N(C(C)C)[C@H]12 [Compound 4-B] ?
1270 nM

Next:
Query (compound): COCC(=O)NC1CCC2c3cc(C(=O)Nc4ccc(OC(F)(F)Cl)cc4)cc(-c4ccn[nH]4)c3N(C(C)C)C12 (stereo not shown) [Compound 9] ; field requested: GI50
206 nM

Could you do the same for CC(=O)NC1CCC2c3cc(C(=O)Nc4ccc(OC(F)(F)Cl)cc4)cc(-c4ccncc4)c3N(C(C)C)C12 (stereo not shown) [Compound 21] , please?
176 nM

// repeat for CC(C)N1c2c(-c3ccn[nH]3)cc(C(=O)Nc3ccc(OC(F)(F)Cl)cc3)cc2C2CCC(NS(=O)(=O)N3CCCCC3)C21 (stereo not shown) [Compound 16] and report
252 nM

Also CC(C)N1c2c(-c3ccn[nH]3)cc(C(=O)Nc3ccc(OC(F)(F)Cl)cc3)cc2C2CCC(NC(=O)N3CCOCC3)C21 (stereo not shown) [Compound 10] , if possible.
29 nM

* * *

biological target: BaF3 (T315I mutant) (Homo sapiens, UniProt P00519, T315I, cells depend on it); test: WST (CCK-8) anti-proliferative assay, BaF3 T315I mutant; details: read-out: BaF3 (T315I mutant), 72 h treatment, CCK-8 readout OD 450 nm
Overview of reported GI50 across a group of molecules:
Please provide the amount together with its unit, number first.

Please review the entries below; each comes with its answer.
Form field - read-out: GI50; system: BaF3 (T315I mutant) (Homo sapiens, UniProt P00519, T315I, cells depend on it); submitted item: CC(C)N1c2c(-c3ccn[nH]3)cc(C(=O)Nc3ccc(OC(F)(F)Cl)cc3)cc2C2CCC(NC(=O)c3cocn3)C21 (stereo not drawn)
64 nM

Same question for CC(=O)N[C@@H]1CC[C@H]2c3cc(C(=O)Nc4ccc(OC(F)(F)Cl)cc4)cc(-c4cccc(C#N)c4)c3N(C(C)C)[C@@H]12 please.
29 nM

And CC(C)C(=O)NC1CCC2c3cc(C(=O)Nc4ccc(OC(F)(F)Cl)cc4)cc(-c4ccn[nH]4)c3N(C(C)C)C12 (stereo not drawn) ?
142 nM

Next record, please: COc1cncc(-c2cc(C(=O)Nc3ccc(OC(F)(F)Cl)cc3)cc3c2N(C(C)C)[C@H]2[C@H](NC(C)=O)CC[C@@H]32)c1
116 nM

Try CC(C)N1c2c(-c3ccn[nH]3)cc(C(=O)Nc3ccc(OC(F)(F)Cl)cc3)cc2C2CCC(NC(=O)C3CCNCC3)C21 (stereo not drawn) next.
5060 nM

Proceed to the following item.
Entry CC(C)N1c2c(-c3ccn[nH]3)cc(C(=O)Nc3ccc(OC(F)(F)Cl)cc3)cc2C2CCN(C)CC21 (stereo not drawn) , system BaF3 (T315I mutant) (Homo sapiens, UniProt P00519, T315I, cells depend on it): what GI50 was measured?
1110 nM

* * *

molecular target: BaF3(WT) (Homo sapiens); assay: WST (CCK-8) anti-proliferative assay, BaF3 WT; settings: read-out: BaF3(WT); BaF3 WT cells, 72 h treatment, CCK-8 readout OD 450 nm
Entries whose GI50 is below 0.01 µM take Condition met; entries at or above 0.01 µM take Condition not met.

Use the examples below as a reference point.
Is the reported GI50 for CC(=O)N[C@@H]1CC[C@H]2c3cc(C(=O)Nc4ccc(OC(F)(F)Cl)cc4)cc(-c4ccn[nH]4)c3N(CC(C)(C)C)[C@@H]12 strictly below 0.01 µM?
Condition met

Entry to check: CC(=O)NC1CCC2c3cc(C(=O)Nc4ccc(OC(F)(F)Cl)cc4)cc(-c4ccncc4)c3N(C(C)C)C12 (stereo not drawn)
Condition not met

Field entry: CC(=O)N[C@@H]1CC[C@H]2c3cc(C(=O)Nc4ccc(OC(F)(F)Cl)cc4)cc(-c4cccc(C#N)c4)c3N(C(C)C)[C@@H]12
Condition met

Others:
Does this compound meet the criterion GI50 < 0.01 µM? CC(=O)N[C@@H]1CC[C@H]2c3cc(C(=O)Nc4ccc(OC(F)(F)Cl)cc4)cc(-c4cccnc4)c3N(C(C)C)[C@@H]12
Condition met

* * *

target: BaF3 (T315I mutant) (Homo sapiens, UniProt P00519, T315I, cells depend on it); assay: WST (CCK-8) anti-proliferative assay, BaF3 T315I mutant; conditions: read-out: BaF3 (T315I mutant), 72 h treatment, CCK-8 readout OD 450 nm
endpoint: GI50 (µM)
Give just the number in µM; leave the unit off.

Query: GI50; subject: CC(=O)N[C@@H]1CC[C@H]2c3cc(C(=O)Nc4ccc(OC(F)(F)Cl)cc4)cc(-c4cncc(F)c4)c3N(C(C)C)[C@@H]12 [Compound 46-A]
0.008

Continuing:
Report GI50 for CCOC(=O)NC1CCC2c3cc(C(=O)Nc4ccc(OC(F)(F)Cl)cc4)cc(-c4ccn[nH]4)c3N(C(C)C)C12 (stereo not drawn) [Compound 28] please.
0.168

Now the same for CC(C)N1c2c(-c3ccn[nH]3)cc(C(=O)Nc3ccc(OC(F)(F)Cl)cc3)cc2C2CCC(NC(=O)C3CCN(C)CC3)C21 (stereo not drawn) [Compound 32]
2.11

Now consider CC(=O)N[C@@H]1CC[C@H]2c3cc(C(=O)Nc4ccc(OC(F)(F)Cl)cc4)cc(-c4cccnn4)c3N(CC(C)(C)C)[C@@H]12 [Compound 59-A] and answer again.
0.122

Now consider CC(=O)NC1CC2c3cc(C(=O)Nc4ccc(OC(F)(F)Cl)cc4)cc(-c4ccn[nH]4)c3N(C(C)C)C2C1 (stereo not drawn) [Compound 43] .
0.768

// repeat for CC(C)N1c2c(-c3ccn[nH]3)cc(C(=O)Nc3ccc(OC(F)(F)Cl)cc3)cc2C2CCC(NS(=O)(=O)c3nnc[nH]3)C21 (stereo not drawn) [Compound 17] and report
1.67
